Recorded measurements of GI50, one per entry
System: A498 renal
method: NCI tumour cell line growth inhibition, 48 h
measurement-label: GI50

{"columns": ["compound", "measurement-label", "observed-result"],
 "data": [
  ["COc1cc(/C=C/c2cc(/C=C/c3ccc(O)c(OC)c3)n(C(N)=O)n2)ccc1O", "GI50", "1.12 µM"],
  ["C=C1C(O)C2C(=C(CC(C)C)C13CC3)C(=O)C(C)(C)C2O (stereo not drawn)", "GI50", "> 100 µM"],
  ["COC1=C(C)C(=O)N2[C@@H]1[C@H](c1ccccc1)OC21C=CC(=O)C=C1", "GI50", "27.4 µM"]
]}
